molecular target: Melatonin receptor (Gallus gallus, UniProt P49288+P51050+P49285); test: Binding affinity in chicken brain membranes by using [2-125I]melatonin in a competition radioligand binding assay; type: cell membranes, Membrane
Measured quantity: log10 Ki (log10 of the value in nM)

- Compound: "CC(=O)NCC(C)c1c(-c2ccccc2)n(C)c2ccccc12 (configuration not stated)"
  log10 Ki: 0.77
- Compound: "CCC(=O)NCCc1c(-c2ccccc2)[nH]c2ccc(OC)cc12"
  log10 Ki: -1.33
- Compound: "CC(Br)C(=O)NCCc1c(-c2ccccc2)[nH]c2ccccc12 (configuration not stated)"
  log10 Ki: 3.28
- Compound: "CC(CNC(=O)C1CCC1)c1c(-c2ccccc2)n(C)c2ccccc12 (configuration not stated)"
  log10 Ki: 2.35
- Compound: "CCCC(=O)NCCc1c(-c2ccccc2)[nH]c2ccc(OC)cc12"
  log10 Ki: -1.25
- Compound: "O=C(NCCc1c(-c2ccccc2)[nH]c2ccccc12)C1CCCC1"
  log10 Ki: 2.80
- Compound: "[N-]=[N+]=NCC(=O)NCCc1c(-c2ccccc2)[nH]c2ccccc12"
  log10 Ki: 2.61
- Compound: "CCCC(=O)NCCc1c(-c2ccccc2)[nH]c2ccccc12"
  log10 Ki: 2.05
- Compound: "COc1ccc2[nH]c(-c3ccccc3)c(CCNC(=O)C3CCC3)c2c1"
  log10 Ki: 0.43
- Compound: "O=C(CBr)NCCc1c(-c2ccccc2)[nH]c2ccccc12"
  log10 Ki: 1.74
- Compound: "O=C(NCCc1c(-c2ccccc2)[nH]c2ccccc12)C1CCCCC1"
  log10 Ki: 3.19
- Compound: "O=C(NCCc1c(-c2ccccc2)[nH]c2ccccc12)C1CCC1"
  log10 Ki: 2.75
- Compound: "O=C(CCc1ccccc1)NCCc1c(-c2ccccc2)[nH]c2ccccc12"
  log10 Ki: 3.85
- Compound: "CC(=O)NCCc1c(-c2ccccc2)[nH]c2ccccc12"
  log10 Ki: 2.00
- Compound: "CCn1c(-c2ccccc2)c(CCNC(C)=O)c2ccccc21"
  log10 Ki: 2.19
- Compound: "Cn1c(-c2ccccc2)c(CCNC(=O)C2CCC2)c2ccccc21"
  log10 Ki: 2.86
- Compound: "COc1ccc2[nH]c(-c3ccccc3)c(CCNC(=O)CCc3ccccc3)c2c1"
  log10 Ki: 2.42
- Compound: "COc1ccc2[nH]c(-c3ccccc3)c(CCNC(=O)C3CCCC3)c2c1"
  log10 Ki: 1.52
- Compound: "O=C(NCCc1c(-c2ccccc2)[nH]c2ccccc12)C(F)(F)F"
  log10 Ki: 2.17
- Compound: "O=C(NCCc1c(-c2ccccc2)[nH]c2ccccc12)C1CC1"
  log10 Ki: 2.33
- Compound: "COc1ccc2[nH]c(-c3ccccc3)c(CCNC(C)=O)c2c1"
  log10 Ki: -1.22
- Compound: "COc1ccc2[nH]c(-c3ccccc3)c(CCNC(=O)C34C[C@H]5C[C@@H](C3)C[C@@H](C4)C5)c2c1"
  log10 Ki: 3.04

###

biological target: Melatonin receptor (Gallus gallus, UniProt P49288+P51050+P49285); assay: Binding affinity in chicken brain membranes by using [2-125I]melatonin in a competition radioligand binding assay; format: cell membranes, Membrane
Quick list: Ki per entry.

- Compound: "COCC(CNC(=O)C1CCC1)c1c(-c2ccccc2)n(C)c2ccccc12 (stereo not drawn)"
  Ki: "659 nM"
- Compound: "O=C(NCCc1c(-c2ccccc2)[nH]c2ccccc12)C12C[C@H]3C[C@@H](C1)C[C@@H](C2)C3"
  Ki: "1100 nM"
- Compound: "CCC(=O)NCCc1c(-c2ccccc2)[nH]c2ccccc12"
  Ki: "70 nM"
- Compound: "COc1ccc2[nH]c(-c3ccccc3)c(CCNC(=O)C3CC3)c2c1"
  Ki: "0.3047 nM"
- Compound: "COc1ccc2[nH]c(-c3ccccc3)c(CCNC(=O)C(F)(F)F)c2c1"
  Ki: "0.019 nM"
- Compound: "COc1ccc2[nH]c(-c3ccccc3)c(CCNC(=O)C3CCCCC3)c2c1"
  Ki: "216 nM"
- Compound: "CC(=O)NCCc1c(-c2ccccc2)n(C)c2ccccc12"
  Ki: "63 nM"
- Compound: "O=C(NCCc1c(-c2ccccc2)[nH]c2ccccc12)C(F)(F)C(F)(F)F"
  Ki: "6500 nM"

Recorded values, source ChEMBL document CHEMBL1128282.
